These entries and their values trace back to ChEMBL document CHEMBL1154779.

Ki values for the compounds below.
study.target: Adrenergic receptor alpha-1 (Rattus norvegicus, UniProt P15823+P23944+P43140)
Sequence (P15823 whole entry): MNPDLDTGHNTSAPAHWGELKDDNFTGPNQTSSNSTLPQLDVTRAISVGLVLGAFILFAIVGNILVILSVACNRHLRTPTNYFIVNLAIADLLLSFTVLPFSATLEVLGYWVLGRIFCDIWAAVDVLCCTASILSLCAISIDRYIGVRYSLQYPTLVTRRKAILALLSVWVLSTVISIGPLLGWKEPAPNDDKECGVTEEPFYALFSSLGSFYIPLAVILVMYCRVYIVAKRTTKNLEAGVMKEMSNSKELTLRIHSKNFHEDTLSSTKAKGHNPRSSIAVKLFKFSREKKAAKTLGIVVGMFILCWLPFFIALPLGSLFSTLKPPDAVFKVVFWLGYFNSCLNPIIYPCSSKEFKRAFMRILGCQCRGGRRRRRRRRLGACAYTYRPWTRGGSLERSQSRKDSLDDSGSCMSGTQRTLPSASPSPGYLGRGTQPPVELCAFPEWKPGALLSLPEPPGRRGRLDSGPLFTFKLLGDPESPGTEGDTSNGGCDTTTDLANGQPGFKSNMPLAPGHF
Sequence (P23944 whole entry): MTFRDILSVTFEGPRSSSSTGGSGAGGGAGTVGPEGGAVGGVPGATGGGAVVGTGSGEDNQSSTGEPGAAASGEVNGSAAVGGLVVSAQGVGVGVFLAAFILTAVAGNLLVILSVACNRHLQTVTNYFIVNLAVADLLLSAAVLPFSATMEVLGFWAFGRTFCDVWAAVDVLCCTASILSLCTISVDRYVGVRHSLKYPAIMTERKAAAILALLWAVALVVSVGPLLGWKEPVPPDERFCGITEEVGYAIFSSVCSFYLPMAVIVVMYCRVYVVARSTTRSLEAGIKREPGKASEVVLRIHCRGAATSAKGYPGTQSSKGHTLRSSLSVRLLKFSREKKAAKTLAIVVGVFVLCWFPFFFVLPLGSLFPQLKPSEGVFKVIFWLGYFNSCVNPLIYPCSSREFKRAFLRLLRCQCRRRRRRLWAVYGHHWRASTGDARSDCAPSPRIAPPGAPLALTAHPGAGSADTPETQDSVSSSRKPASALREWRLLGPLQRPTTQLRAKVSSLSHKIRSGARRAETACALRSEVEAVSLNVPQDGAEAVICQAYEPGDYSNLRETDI
Sequence (P43140 whole entry): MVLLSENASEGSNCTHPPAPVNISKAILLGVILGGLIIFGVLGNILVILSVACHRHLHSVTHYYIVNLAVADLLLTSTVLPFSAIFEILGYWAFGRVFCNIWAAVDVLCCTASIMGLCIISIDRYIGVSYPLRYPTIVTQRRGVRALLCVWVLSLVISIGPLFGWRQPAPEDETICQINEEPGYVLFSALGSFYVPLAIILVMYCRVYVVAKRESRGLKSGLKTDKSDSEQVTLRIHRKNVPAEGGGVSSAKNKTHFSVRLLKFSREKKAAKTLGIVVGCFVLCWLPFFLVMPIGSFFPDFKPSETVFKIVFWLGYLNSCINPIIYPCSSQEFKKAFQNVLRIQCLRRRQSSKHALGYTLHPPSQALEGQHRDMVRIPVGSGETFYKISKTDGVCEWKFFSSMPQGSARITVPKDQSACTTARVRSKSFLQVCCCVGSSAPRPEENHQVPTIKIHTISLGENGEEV
assay: Displacement of [3H]Prazosin from alpha1 adrenergic receptor in Wistar rat cerebral cortex membrane by liquid scintillation counting
Assay type: tissue-based
metric.name: Ki

INSERT INTO results (compound, study_target, obs_value) VALUES
  ('COc1ccccc1OCCNCC(O)COc1ccc(OC)c2[nH]ccc12 (racemic)', 'Adrenergic receptor alpha-1 (Rattus norvegicus, UniProt P15823+P23944+P43140)', '75.8 nM'),
  ('COc1ccccc1OCCNCC(O)COc1c(OC)ccc2[nH]ccc12 (racemic)', 'Adrenergic receptor alpha-1 (Rattus norvegicus, UniProt P15823+P23944+P43140)', '21.1 nM'),
  ('COc1ccccc1OCCNC[C@H](O)COc1ccc(OC)c2[nH]ccc12', 'Adrenergic receptor alpha-1 (Rattus norvegicus, UniProt P15823+P23944+P43140)', '168.8 nM'),
  ('COc1ccccc1OCCNC[C@@H](O)COc1c(OC)ccc2[nH]ccc12', 'Adrenergic receptor alpha-1 (Rattus norvegicus, UniProt P15823+P23944+P43140)', '45.8 nM'),
  ('COc1ccccc1OCCNC[C@H](O)COc1c(OC)ccc2[nH]ccc12', 'Adrenergic receptor alpha-1 (Rattus norvegicus, UniProt P15823+P23944+P43140)', '11.3 nM'),
  ('COc1ccccc1OCCNC[C@@H](O)COc1ccc(OC)c2[nH]ccc12', 'Adrenergic receptor alpha-1 (Rattus norvegicus, UniProt P15823+P23944+P43140)', '60.9 nM');

====

Species on record: Oryctolagus cuniculus
assay: Spasmolytic activity in rabbit ileum assessed as decrease in amplitude of contraction at 100 uM measured for 5 mins
Assay type: functional
Activity calls are given as the source filed them. No cut-off for these calls is given here.
metric.name: Activity

INSERT INTO results (compound, obs_value) VALUES
  ('COc1ccccc1OCCNCC(O)COc1c(OC)ccc2[nH]ccc12 (racemic)', 'Active'),
  ('COc1ccccc1OCCNC[C@@H](O)COc1c(OC)ccc2[nH]ccc12', 'Active'),
  ('COc1ccccc1OCCNC[C@H](O)COc1c(OC)ccc2[nH]ccc12', 'Active');

====

System: Rattus norvegicus
assay: Effect on heart rate in anesthetized Wistar rat assessed as P-Q intervals time at 1 mg/kg, iv after 5 mins by electrocardiography
Assay type: functional
metric.name: Activity

INSERT INTO measurements (compound, metric_name, obs_value) VALUES
  ('COc1ccccc1OCCNC[C@H](O)COc1ccc(OC)c2[nH]ccc12', 'Activity', '56.7 ms'),
  ('COc1ccccc1OCCNC[C@H](O)COc1c(OC)ccc2[nH]ccc12', 'Activity', '46 ms'),
  ('COc1ccccc1OCCNCC(O)COc1c(OC)ccc2[nH]ccc12 (racemic)', 'Activity', '51.3 ms'),
  ('COc1ccccc1OCCNC[C@@H](O)COc1ccc(OC)c2[nH]ccc12', 'Activity', '59.7 ms'),
  ('COc1ccccc1OCCNCC(O)COc1cccc2[nH]ccc12 (racemic)', 'Activity', '48.1 ms'),
  ('COc1ccccc1OCCNCC(O)COc1ccc(OC)c2[nH]ccc12 (racemic)', 'Activity', '59.4 ms'),
  ('COc1ccccc1OCCNC[C@@H](O)COc1c(OC)ccc2[nH]ccc12', 'Activity', '42.7 ms');

====

Tested on: Rattus norvegicus
assay: Effect on heart rate in anesthetized Wistar rat assessed as QRS complex time at 1 mg/kg, iv after 1 min by electrocardiography
Type: functional
metric.name: Activity (ms)

INSERT INTO results (molecule, obs_value) VALUES
  ('COc1ccccc1OCCNCC(O)COc1cccc2[nH]ccc12 (racemic)', 28.4),
  ('COc1ccccc1OCCNCC(O)COc1ccc(OC)c2[nH]ccc12 (racemic)', 24.2),
  ('COc1ccccc1OCCNC[C@@H](O)COc1ccc(OC)c2[nH]ccc12', 22.7),
  ('COc1ccccc1OCCNCC(O)COc1c(OC)ccc2[nH]ccc12 (racemic)', 31.3),
  ('COc1ccccc1OCCNC[C@@H](O)COc1c(OC)ccc2[nH]ccc12', 28),
  ('COc1ccccc1OCCNC[C@H](O)COc1c(OC)ccc2[nH]ccc12', 26),
  ('COc1ccccc1OCCNC[C@H](O)COc1ccc(OC)c2[nH]ccc12', 25);

====

Tested on: Rattus norvegicus
assay: Effect on heart rate in anesthetized Wistar rat assessed as P-Q intervals time at 1 mg/kg, iv after 15 mins by electrocardiography
Assay type: functional
Label key: Y means Activity under 50 ms; N means Activity of 50 ms or more.

INSERT INTO results (compound, study_target, label) VALUES
  ('COc1ccccc1OCCNC[C@@H](O)COc1c(OC)ccc2[nH]ccc12', 'Rattus norvegicus', 'Y'),
  ('COc1ccccc1OCCNC[C@@H](O)COc1ccc(OC)c2[nH]ccc12', 'Rattus norvegicus', 'N'),
  ('COc1ccccc1OCCNCC(O)COc1ccc(OC)c2[nH]ccc12 (racemic)', 'Rattus norvegicus', 'N'),
  ('COc1ccccc1OCCNC[C@H](O)COc1ccc(OC)c2[nH]ccc12', 'Rattus norvegicus', 'N'),
  ('COc1ccccc1OCCNC[C@H](O)COc1c(OC)ccc2[nH]ccc12', 'Rattus norvegicus', 'Y'),
  ('COc1ccccc1OCCNCC(O)COc1cccc2[nH]ccc12 (racemic)', 'Rattus norvegicus', 'Y'),
  ('COc1ccccc1OCCNCC(O)COc1c(OC)ccc2[nH]ccc12 (racemic)', 'Rattus norvegicus', 'Y');

====

System: Rattus norvegicus
assay: Effect on heart rate in anesthetized Wistar rat assessed as QRS complex time at 1 mg/kg, iv after 5 mins by electrocardiography
Assay type: functional
Activity values for the compounds below.
metric.name: Activity (ms)

INSERT INTO results (compound, u, obs_value) VALUES
  ('COc1ccccc1OCCNCC(O)COc1c(OC)ccc2[nH]ccc12 (racemic)', 'ms', 27.3),
  ('COc1ccccc1OCCNC[C@@H](O)COc1c(OC)ccc2[nH]ccc12', 'ms', 28.7),
  ('COc1ccccc1OCCNC[C@@H](O)COc1ccc(OC)c2[nH]ccc12', 'ms', 23.3),
  ('COc1ccccc1OCCNCC(O)COc1ccc(OC)c2[nH]ccc12 (racemic)', 'ms', 23),
  ('COc1ccccc1OCCNC[C@H](O)COc1c(OC)ccc2[nH]ccc12', 'ms', 28.7),
  ('COc1ccccc1OCCNCC(O)COc1cccc2[nH]ccc12 (racemic)', 'ms', 24.9),
  ('COc1ccccc1OCCNC[C@H](O)COc1ccc(OC)c2[nH]ccc12', 'ms', 24.5);
